As shown below, each of these compounds has a reported Onset time value.
# Organism: Rattus norvegicus
# Assay Details: Onset time in minutes, between ingestion and the first noticeable symptoms was determined
# Assay type: functional

Chemical Smiles | Onset time
COc1ccc2[nH]cc(CCN(C)C(C)C)c2c1 | 9 min
CC(C)N(C)CCc1c[nH]c2cccc(O)c12 | 20 min
COc1cccc2[nH]cc(CCN(C)C(C)C)c12 | 45 min
CC(C)N(C)CCc1c[nH]c2ccccc12 | 40 min

###

# Assay Details: […] and the effective dose required for the elicitation of the complete psychotomimetic spectrum was determined.
# Format: functional

Chemical Smiles | Effective dose / mg/kg
CC(C)N(C)CCc1c[nH]c2ccccc12 | 25
COc1ccc2[nH]cc(CCN(C)C(C)C)c2c1 | 5
COc1cccc2[nH]cc(CCN(C)C(C)C)c12 | 30
CC(C)N(C)CCc1c[nH]c2cccc(O)c12 | 10
